Test system: Staphylococcus aureus
Assay: Antibacterial activity against Staphylococcus aureus ATCC 25923 assessed growth inhibition by micro broth dilution method
Format: functional
Measured MIC values are reported for all entries that follow.
Reply with just the number (in µg/mL).

As a guide, the following entries are already answered.
Inquiry: Query: MIC; subject: `CCOC(=O)c1cn(CC=C(C)C)c2cc(F)c(F)cc2c1=O`
Reply text: 64

Inquiry: Form field: reported MIC of `CCOC(=O)c1cn(CC2CC2)c2cc(F)c(F)cc2c1=O`
Reply text: 128

Inquiry: Which MIC is listed for CCOC(=O)C(C#N)c1cc2c(cc1F)c(=O)c(C(=O)O)cn2C1CC1 (stereo not given) ?
Reply text: 8

Inquiry: Entry C#CCn1cc(C(=O)OCC)c(=O)c2cc(F)c([C-](C#N)C(=O)OCC)cc21.[Na+] (stereo not given) : reported MIC = ?
Reply text: 2

New cases:
Inquiry: Recorded MIC of CCCCn1cc(C(=O)OCC)c(=O)c2cc(F)c([C-](C#N)C(=O)OCC)cc21.[Na+] (stereo not given) , please.
Reply text: 2

Inquiry: May I ask what MIC has been recorded for `CCOC(=O)c1cn(C2CC2)c2cc(F)c(F)cc2c1=O` ?
Reply text: 16

Inquiry: Looking for the measured MIC of CCOC(=O)c1cn(CC2CCC2)c2cc([C-](C#N)C(=O)OCC)c(F)cc2c1=O.[Na+] (stereo not given) , can you help?
Reply text: 4

Inquiry: Which MIC is reported for this molecule? CCOC(=O)C(C#N)c1cc2c(cc1F)c(=O)c(C(=O)O)cn2Cc1ccc(F)cc1F (stereo not given)
Reply text: 1

Inquiry: Look up MIC for this molecule: `CCCCn1cc(C(=O)OCC)c(=O)c2cc(F)c(F)cc21`
Reply text: 128

Inquiry: Name the reported MIC value associated with the molecule CCCCCn1cc(C(=O)OCC)c(=O)c2cc(F)c([C-](C#N)C(=O)OCC)cc21.[Na+] (stereo not given)
Reply text: 1

Inquiry: Look up MIC for this molecule: CCOC(=O)C(C#N)c1cc2c(cc1F)c(=O)c(C(=O)O)cn2Cc1ccc(Cl)cc1Cl (stereo not given)
Reply text: 1

Inquiry: Consider the molecule CCOC(=O)c1cn(Cc2ccccn2)c2cc([C-](C#N)C(=O)OCC)c(F)cc2c1=O.[Na+] (stereo not given) and give its measured MIC.
Reply text: 256

* * *

System: Staphylococcus aureus
Assay: Antibacterial activity against Staphylococcus aureus ATCC 25923 assessed growth inhibition by micro broth dilution method
Type: functional
# strict inequality: MIC < 20 µg/mL yields true (1), everything else yields false (0)

Look over these answered cases.
Inquiry: Please state whether MIC is below 20 µg/mL for CCn1cc(C(=O)O)c(=O)c2cc(F)c(N3CCNCC3)cc21 [NORFLOXACIN]
Reply text: true (1)

Inquiry: Consider the compound `CCCCCCCCn1cc(C(=O)OCC)c(=O)c2cc(F)c(F)cc21` . Is its MIC strictly less than 20 µg/mL?
Reply text: false (0)

Inquiry: Quick check: MIC of `CCOC(=O)c1cn(CC2CCC2)c2cc(F)c(F)cc2c1=O` under 20 µg/mL?
Reply text: true (1)

Inquiry: hey, is MIC for `CCOC(=O)c1cn(CC2CCCC2)c2cc(F)c(F)cc2c1=O` lower than 20 µg/mL or not?
Reply text: true (1)

Inquiry: Is MIC of CCOC(=O)c1cn(CC2CC2)c2cc([C-](C#N)C(=O)OCC)c(F)cc2c1=O.[Na+] (stereo not drawn) strictly below 20 µg/mL?
Reply text: true (1)

Further cases:
Inquiry: I'd appreciate it if you could check whether `C=CCn1cc(C(=O)OCC)c(=O)c2cc(F)c(F)cc21` has MIC smaller than 20 µg/mL.
Reply text: false (0)

Inquiry: Does CCCCCCCCn1cc(C(=O)OCC)c(=O)c2cc(F)c([C-](C#N)C(=O)OCC)cc21.[Na+] (stereo not drawn) have MIC strictly under 20 µg/mL?
Reply text: true (1)

Inquiry: Please determine if `CCOC(=O)c1cn(Cc2ccc([N+](=O)[O-])cc2)c2cc(F)c(F)cc2c1=O` is below 20 µg/mL in terms of MIC.
Reply text: false (0)
